Where do these numbers come from? They come from patent US11149031B2.

molecular target: His6-ERα298-554 WT (ERα ligand-binding domain) (Homo sapiens (Human)); test: Test A: biochemical antagonist activity, LanthaScreen TR-FRET ERα coactivator assay, WT; conditions: asterisk (*): protocol using 10 nM estradiol; read-out: Antagonism WT IC50
Sequence (P03372 298-554): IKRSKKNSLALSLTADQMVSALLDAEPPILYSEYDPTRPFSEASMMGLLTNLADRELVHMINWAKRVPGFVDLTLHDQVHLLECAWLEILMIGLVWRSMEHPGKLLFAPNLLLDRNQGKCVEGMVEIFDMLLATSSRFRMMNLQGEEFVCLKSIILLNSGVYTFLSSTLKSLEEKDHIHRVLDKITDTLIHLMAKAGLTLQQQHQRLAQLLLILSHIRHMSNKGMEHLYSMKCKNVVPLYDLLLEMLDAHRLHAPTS
MEASUREMENT LABEL: pIC50
# log scale: pIC50 equals minus log10 of the concentration in mol/L

Oc1ccc2c(c1)SCCC(c1ccc(OC(F)(F)F)c(F)c1)=C2c1ccc(O[C@H]2CCN(CCCF)C2)cc1 :: 7.41
Oc1ccc2c(c1)SCC(c1ccc(CF)cc1)=C2c1ccc(O[C@H]2CCN(CCCF)C2)cc1 :: 7.43
Oc1ccc2c(c1)SCC(c1ccc(Cl)nc1F)=C2c1ccc(O[C@H]2CCN(CCCF)C2)cc1 :: 7.32
O=C1COc2ccc(C3=C(c4ccc(O[C@H]5CCN(CCCF)C5)cc4)c4ccc(O)cc4SC3)cc2N1 :: 6.22

What value of pIC50 has been recorded for this entry: O=C1Cc2cc(C3=C(c4ccc(O[C@H]5CCN(CCCF)C5)cc4)c4ccc(O)cc4SC3)ccc2N1 6.46

What value of pIC50 has been recorded for this entry: Oc1ccc2c(c1)SCC(c1ccc(OC3COC3)cc1)=C2c1ccc(O[C@H]2CCN(CCCF)C2)cc1 6.76

What value of pIC50 has been recorded for this entry: CC/C(=C(/c1ccc(O[C@H]2CCN(CCCF)C2)cc1)c1ccc2[nH]ncc2c1)c1ccc(F)cc1Cl 7.82
